Biological target: T1, B7H3 on B7H3-positive human tumour cells (A498, MCF-7, Caki-2, 786-0) (human, UniProt Q5ZPR3 29-534)
T1 sequence (looked up): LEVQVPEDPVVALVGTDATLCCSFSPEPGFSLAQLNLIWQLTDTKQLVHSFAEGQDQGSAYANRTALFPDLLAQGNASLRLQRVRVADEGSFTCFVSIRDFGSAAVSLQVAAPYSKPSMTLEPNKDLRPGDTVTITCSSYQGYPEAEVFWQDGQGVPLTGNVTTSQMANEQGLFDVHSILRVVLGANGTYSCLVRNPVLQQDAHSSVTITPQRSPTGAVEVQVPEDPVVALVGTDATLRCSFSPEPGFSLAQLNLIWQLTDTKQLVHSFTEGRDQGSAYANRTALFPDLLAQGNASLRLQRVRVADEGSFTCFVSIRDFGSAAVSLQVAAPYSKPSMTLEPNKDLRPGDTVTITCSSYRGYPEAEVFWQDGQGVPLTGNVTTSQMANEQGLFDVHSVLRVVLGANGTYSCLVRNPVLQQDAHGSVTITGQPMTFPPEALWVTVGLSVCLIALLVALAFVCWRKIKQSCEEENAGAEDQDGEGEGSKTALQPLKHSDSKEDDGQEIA
Assay: cell-based or functional assay
endpoint label: IC50 [M] CTG, Caki-2 cells (B7H3-positive)

If you can, please state the reported IC50 [M] CTG, Caki-2 cells (B7H3-positive) value of Example 296L2: anti-B7H3 AK1B (TPP-5706) coupled with Intermediate F296 (antibody, human IgG1, kappa, V domains shown, KSP inhibitor-linker (Intermediate F296) on cysteine residues of the partially reduced antibody, sites not given; drug/mAb ratio 3.2) VH: QVQLQQPGAELVKPGASVKMSCKASGYTFTIYNVHWIKQTPGQGLEWMGTIFPGNGDTSYNQKFKDKATLTTDKSSKTAYMQLNSLTSEDSAVYYCARWDDGNVGFAHWGQGTLVTVSA VL: DIQMTQSPASLSASVGETVTITCRASENINNYLTWFQQKQGKSPQLLVYHAKTLAEGVPSRFSGSGSGTQFSLKINSLQPEDFGSYYCQHHYGTPPTFGGGTKLEIKR .
> 3e-07 M
